Molecular target: T1, Murine APRIL (mouse, UniProt Q9D777 105-241, limits assumed)
T1 sequence (looked up): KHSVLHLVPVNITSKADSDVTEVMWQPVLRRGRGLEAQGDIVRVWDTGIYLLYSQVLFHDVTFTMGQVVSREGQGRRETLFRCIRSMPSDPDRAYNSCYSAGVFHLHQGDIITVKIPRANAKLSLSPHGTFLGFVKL
Test: NNS library, phage display;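 further: ligand versus display occurrence-to-degeneracy ratio and higher means enriched by binding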
Known F' APRIL of a selection of binders
endpointName: F' APRIL

• SLSCRKEQGKFYDHLLRDCISCASTCGQHPKQCAYFCENKLR (receptor, phage library variant, format as m9) [TACI_d2 I92T] = 3
• SLSCRKEQGKYYDHLLRDCISCASICGQHPKQCAYFCENKLR (receptor, phage library variant, format as m9) [TACI_d2 F78Y] = 61
• SLSCRKEQGKFYDHLLRDCISCASNCGQHPKQCAYFCENKLR (receptor, phage library variant, format as m9) [TACI_d2 I92N] = 0
• SLSCRKEQGKFYDHLLQDCISCASICGQHPKQCAYFCENKLR (receptor, phage library variant, format as m9) [TACI_d2 R84Q] = 0
• SLSCRKEQGKFYDHLLEDCISCASICGQHPKQCAYFCENKLR (receptor, phage library variant, format as m9) [TACI_d2 R84E] = 3
• SLSCRKEQGKFTDHLLRDCISCASICGQHPKQCAYFCENKLR (receptor, phage library variant, format as m9) [TACI_d2 Y79T] = 0
